The compounds listed here are annotated with their pIC50.
Target: LTB4 Receptor (Homo sapiens)
Construct: Neutrophils were purified from venous blood of normal human donors; endogenous in cells
Sequence (Q15722 whole entry): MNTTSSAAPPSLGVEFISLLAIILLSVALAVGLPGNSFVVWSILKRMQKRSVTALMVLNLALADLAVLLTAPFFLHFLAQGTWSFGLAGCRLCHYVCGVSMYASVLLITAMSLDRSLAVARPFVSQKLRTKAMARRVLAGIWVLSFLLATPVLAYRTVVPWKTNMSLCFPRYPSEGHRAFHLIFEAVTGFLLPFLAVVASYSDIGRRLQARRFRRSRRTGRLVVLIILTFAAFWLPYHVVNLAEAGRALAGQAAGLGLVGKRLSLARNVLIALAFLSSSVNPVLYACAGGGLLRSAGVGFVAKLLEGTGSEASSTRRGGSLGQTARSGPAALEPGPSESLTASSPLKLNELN
Test: LTB4 Receptor Binding Assay ([3H]LTB4, human neutrophils)
Details: 0.6×10^-9 M (3H) LTB4, human neutrophils, 0° C., 45 minutes, pH 7.4
pIC50: −log10 of the molar value.
Reported metric: pIC50

compound="CCCc1c(OCCCOc2ccc(C(=O)NC)c(OC)c2CC2CC2)ccc2c1OC(CCC(=O)NS(=O)(=O)c1ccccc1)CC2 (stereo not drawn)" reported_metric=pIC50 numeric_value=8.68
compound="CCCc1c(OCCCOc2ccc(C(=O)NC)c(OC)c2CC2CC2)ccc2c1OC(CCC(=O)NS(=O)(=O)c1ccccc1C)CC2 (stereo not drawn)" reported_metric=pIC50 numeric_value=8.52
compound="CCCc1c(OCCCOc2ccc(C(=O)NC)c(OC)c2CC2CC2)ccc2c1OC(CCC(=O)NS(=O)(=O)c1ccc(C)cc1)CC2 (stereo not drawn)" reported_metric=pIC50 numeric_value=8.43

The measurements presented in this section are drawn from patent US5684162A.
